target: AHR (Mus musculus); assay: In vitro assay 3: antagonism in mouse cell line (AHR transactivation, firefly luciferase reporter, kynurenic acid prestimulated); format: cell-based; conditions: mouse Hepa 1c1c7 cells, 200 μM kynurenic acid, 20 hours, read-out: AHR Antagonism Mouse IC50
measuredParameter: pIC50
In simple prose, pIC50 is minus the logarithm base ten of a concentration in moles per litre.

Below, 2 compounds whose answers are already recorded.
1) O=C1NCCCC[C@H]1Nc1nc2ccccc2c2nc(-c3ccccc3Br)nn12
8.47
2) Cc1cc(-c2nc3c4cccc(C(F)(F)F)c4nc(N[C@@H]4CCCCNC4=O)n3n2)n(C)n1
8.78

// pIC50 (AHR (Mus musculus)) for COc1ccc(-c2nc3c4cccc(Br)c4nc(N[C@@H]4COCCNC4=O)n3n2)cc1 = 8.83

// pIC50 (AHR (Mus musculus)) for CC[C@@H](Nc1nc2ccccc2c2nc(-c3ccc(OC)cc3C(F)(F)F)nn12)C(N)=O = 8.69

// pIC50 (AHR (Mus musculus)) for N#Cc1ccc(-c2nc3c4ccccc4nc(N[C@H]4CCCCNC4=O)n3n2)cc1 = 8.10

// pIC50 (AHR (Mus musculus)) for O=C1NCCCC[C@H]1Nc1nc2ccc(F)cc2c2nc(-c3ccccc3F)nn12 = 8.85

// pIC50 (AHR (Mus musculus)) for CN(C)Cc1noc(-c2nc3c4ccccc4nc(N[C@@H]4CCCCNC4=O)n3n2)n1 = 5.74

// pIC50 (AHR (Mus musculus)) for COc1ccc(-c2nc3c4c(C)cccc4nc(N[C@@H]4CCCCNC4=O)n3n2)cc1 = 7.83

// pIC50 (AHR (Mus musculus)) for COc1cccc(-c2nc3c4ccccc4nc(NC4CCN(C)C4=O)n3n2)c1 (single isomer, unassigned) [Example 122] = 7.58

---

target: AHR (Homo sapiens); construct: U87 MG glioblastoma cells (ATCC #HTB-14) endogenously expressing AHR; endogenous in cells; host or cells: U87 MG glioblastoma cells (ATCC #HTB-14); assay: In vitro assay 1: antagonism in human cell line (AHR transactivation, firefly luciferase reporter, kynurenic acid prestimulated); type: cell-based; conditions: AHR Antagonism Human IC50 [M]
Sequence (P35869 11-848): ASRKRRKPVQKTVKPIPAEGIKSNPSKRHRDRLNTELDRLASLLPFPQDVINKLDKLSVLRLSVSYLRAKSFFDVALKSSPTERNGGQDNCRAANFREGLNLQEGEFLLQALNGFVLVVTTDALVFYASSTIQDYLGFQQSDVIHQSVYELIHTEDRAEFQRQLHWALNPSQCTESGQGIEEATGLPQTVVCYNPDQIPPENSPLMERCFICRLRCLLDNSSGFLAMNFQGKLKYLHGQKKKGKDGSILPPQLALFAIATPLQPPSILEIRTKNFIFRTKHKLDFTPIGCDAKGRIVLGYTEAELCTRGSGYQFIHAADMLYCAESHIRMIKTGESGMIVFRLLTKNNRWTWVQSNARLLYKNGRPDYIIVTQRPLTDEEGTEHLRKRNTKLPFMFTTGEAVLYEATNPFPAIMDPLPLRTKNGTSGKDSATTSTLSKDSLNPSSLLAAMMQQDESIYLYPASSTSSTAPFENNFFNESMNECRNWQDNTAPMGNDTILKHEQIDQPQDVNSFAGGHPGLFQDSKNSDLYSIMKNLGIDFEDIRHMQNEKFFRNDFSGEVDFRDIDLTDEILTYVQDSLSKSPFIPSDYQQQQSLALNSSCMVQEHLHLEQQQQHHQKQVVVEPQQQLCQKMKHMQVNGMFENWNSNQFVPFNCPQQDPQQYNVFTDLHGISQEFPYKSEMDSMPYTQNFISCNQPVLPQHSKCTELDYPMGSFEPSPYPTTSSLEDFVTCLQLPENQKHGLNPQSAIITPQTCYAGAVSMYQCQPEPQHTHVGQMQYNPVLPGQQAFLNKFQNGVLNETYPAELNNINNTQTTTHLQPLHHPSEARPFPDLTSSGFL
Below, each entry is listed with its recorded IC50.
Express the result in M but write the number alone.

Below, 3 compounds whose answers are already recorded.
1. N#Cc1ccc(-c2nc3c4cccc(Br)c4nc(N[C@@H]4CCNC4=O)n3n2)cc1
3.96e-09
2. COc1ccc(-c2nc3c4cccc(C5CC5)c4nc(N[C@@H]4CCCCNC4=O)n3n2)cc1
9.97e-09
3. O=C1NCC[C@H]1Nc1nc2ccccc2c2nc(-c3ccccc3OC(F)(F)F)nn12
7.9e-08

// IC50 (AHR (Homo sapiens)) for COc1ccc(-c2nc3c4ccc(C5CC5)cc4nc(N[C@@H]4CCCCNC4=O)n3n2)cc1 = 3.04e-07

// IC50 (AHR (Homo sapiens)) for Nc1cccc(-c2nc3c4ccccc4nc(N[C@@H]4CNCCNC4=O)n3n2)c1 = 8.94e-08

// IC50 (AHR (Homo sapiens)) for O=C1NCCCCCC1Nc1nc2ccccc2c2nc(-c3ccccc3OC(F)F)nn12 (centres unmarked) = 3.11e-09

// IC50 (AHR (Homo sapiens)) for COc1cccc(-c2nc3c4cc(F)ccc4nc(NC4CCNC4=O)n3n2)c1 (single isomer, unassigned) [Example 186] = 2.09e-08

---

Below, each entry is listed with its recorded log10 IC50.
Biological target: UniProt P30561
Sequence (P30561 1-848 P471L/N533S/M589L): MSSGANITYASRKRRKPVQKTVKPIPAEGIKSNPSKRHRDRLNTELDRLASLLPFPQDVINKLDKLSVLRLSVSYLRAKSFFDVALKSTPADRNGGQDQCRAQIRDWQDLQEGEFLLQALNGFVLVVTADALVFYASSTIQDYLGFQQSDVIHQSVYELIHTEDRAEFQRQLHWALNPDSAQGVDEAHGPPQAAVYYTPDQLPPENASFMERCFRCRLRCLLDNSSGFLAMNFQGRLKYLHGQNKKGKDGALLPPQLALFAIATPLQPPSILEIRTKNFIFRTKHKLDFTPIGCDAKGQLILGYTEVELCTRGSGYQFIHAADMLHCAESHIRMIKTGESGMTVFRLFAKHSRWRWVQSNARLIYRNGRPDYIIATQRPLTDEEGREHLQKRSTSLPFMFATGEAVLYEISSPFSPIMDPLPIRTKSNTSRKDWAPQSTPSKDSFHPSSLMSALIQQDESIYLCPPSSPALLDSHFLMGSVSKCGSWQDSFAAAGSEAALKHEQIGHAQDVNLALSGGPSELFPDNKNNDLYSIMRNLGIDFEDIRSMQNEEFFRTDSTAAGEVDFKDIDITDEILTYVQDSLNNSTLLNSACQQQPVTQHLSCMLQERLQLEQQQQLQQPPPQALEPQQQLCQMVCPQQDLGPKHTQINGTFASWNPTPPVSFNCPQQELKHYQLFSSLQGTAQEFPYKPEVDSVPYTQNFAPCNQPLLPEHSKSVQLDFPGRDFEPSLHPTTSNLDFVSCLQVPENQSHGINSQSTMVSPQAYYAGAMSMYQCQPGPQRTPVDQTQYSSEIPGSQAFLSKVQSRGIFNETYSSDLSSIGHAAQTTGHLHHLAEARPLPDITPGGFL
Assay: In vitro assay 3: antagonism in mouse cell line (AHR transactivation, firefly luciferase reporter, kynurenic acid prestimulated)
Assay type: cell-based
Settings: mouse Hepa 1c1c7 cells, 200 μM kynurenic acid, 20 hours, read-out: AHR Antagonism Mouse IC50
The base-10 logarithm of IC50, taken with IC50 in nM, is what appears here.

Below, 8 molecules whose answers are already recorded.
1) C[C@@H](Nc1nc2ccccc2c2nc(-c3ccc(S(C)(=O)=O)cc3)nn12)C(=O)NCCN(C)C
2.74
2) CC(C)(C)n1nccc1-c1nc2c3ccccc3nc(N[C@@H]3CCCCNC3=O)n2n1
1.41
3) CC[C@H](Nc1nc2ccccc2c2nc(-c3ccc(OC)cc3C(F)(F)F)nn12)C(N)=O
2.27
4) CCCCNC(=O)CNc1nc2ccccc2c2nc(-c3ccncc3F)nn12
4.00
5) Cc1sccc1-c1nc2c3ccccc3nc(N[C@@H]3CCNC3=O)n2n1
1.06
6) COc1ccc(-c2nc3c4cccc(Br)c4nc(N[C@H](C)C(=O)NCCN4CCN(C)CC4)n3n2)cc1
0.74
7) Cc1cccc2c1nc(N[C@@H]1CNCCNC1=O)n1nc(-c3cnn(C)c3)nc21
4.14
8) CC[C@@H](Nc1nc2ccccc2c2nc(-c3ccncc3F)nn12)C(N)=O
1.44

// log10 IC50 (UniProt P30561) for COc1ccc(-c2nc3c4ccccc4nc(N[C@H](C)C(=O)O)n3n2)cc1 = 2.65

// log10 IC50 (UniProt P30561) for O=C1NCCCC[C@@H]1Nc1nc2ccccc2c2nc(-c3ccc(Cl)cc3)nn12 = 0.39

// log10 IC50 (UniProt P30561) for Cn1cc(-c2nc3c4cccc(C(F)(F)F)c4nc(N[C@@H]4CCCCNC4=O)n3n2)cn1 = 0.49

// log10 IC50 (UniProt P30561) for COc1ccc(-c2nc3c4ccccc4nc(N[C@H]4CCCCNC4=O)n3n2)c(OC(F)(F)F)c1 = 1.76

// log10 IC50 (UniProt P30561) for CC[C@H](Nc1nc2c(Br)cccc2c2nc(-c3cnn(C)c3)nn12)C(N)=O = 2.86

// log10 IC50 (UniProt P30561) for CCCNC(=O)[C@@H](C)Nc1nc2ccccc2c2nc(-c3cc(Cl)ccc3OC(F)(F)F)nn12 = 2.29

// log10 IC50 (UniProt P30561) for O=C1NCCCC[C@H]1Nc1nc2c(F)cccc2c2nc(-c3ccc(F)cc3)nn12 = -0.59

// log10 IC50 (UniProt P30561) for NC(=O)[C@@H](CO)Nc1nc2ccccc2c2nc(-c3cccc(OC(F)(F)F)c3)nn12 = 2.00

// log10 IC50 (UniProt P30561) for COc1cccc(-c2nc3c4ccccc4nc(N[C@H](C)C(=O)NCCCO)n3n2)c1 = 0.78

// log10 IC50 (UniProt P30561) for O=C1NCCNC[C@H]1Nc1nc2c(Cl)cccc2c2nc(-c3cccc(F)c3)nn12 = 0.54

---

Below, each entry is listed with its recorded IC50.
target: AHR (Homo sapiens); construct: U87 MG glioblastoma cells (ATCC #HTB-14) endogenously expressing AHR; endogenous in cells; host or cells: U87 MG glioblastoma cells (ATCC #HTB-14); assay: In vitro assay 1: antagonism in human cell line (AHR transactivation, firefly luciferase reporter, kynurenic acid prestimulated); assay type: cell-based; conditions: AHR Antagonism Human IC50 [M]

1. O=C1NCCCC[C@H]1Nc1nc2ccc(F)cc2c2nc(-c3ccccc3F)nn12
1.7e-09 M
2. COc1ccc(-c2nc3c4cc(C)ccc4nc(N[C@@H]4CCCCNC4=O)n3n2)cc1
1.27e-09 M
3. COc1ccccc1-c1nc2c3ccccc3nc(N[C@@H]3CCCCNC3=O)n2n1
3.63e-08 M

IC50 reading for Cc1cncc(-c2nc3c4ccccc4nc(N[C@@H]4CCCCNC4=O)n3n2)c1 : 2.32e-08 M

IC50 reading for O=C1NCCNC[C@H]1Nc1nc2c(C(F)(F)F)cccc2c2nc(-c3ccc(Cl)cc3OC(F)(F)F)nn12 : 4.84e-09 M

IC50 reading for CCCNC(=O)[C@H](CC)Nc1nc2c(Br)cccc2c2nc(-c3ccc(Cl)cc3OC(F)F)nn12 : > 5.71e-07 M

IC50 reading for COc1cccc(-c2nc3c4ccccc4nc(N[C@@H](C)C(N)=O)n3n2)c1 [Example 81] : 4.02e-07 M
